tested on: Puccinia recondita; assay: In vivo preventive test on Puccinia recondita (brown rust on wheat); conditions: dose 500 ppm; wheat plants sprayed 24 h before contamination; grading 12 days after contamination
Listing: Eff. % of selected compounds
QUANTITY KIND: Eff. % (%)

{"COMPOUND": "CC1CC(C)(C)c2c(Cl)ccc(NC(=O)c3c(C(F)F)nn(C)c3Cl)c21 (stereo not drawn)", "QUANTITY KIND": "Eff. %", "RESULT NUMBER": 93}
{"COMPOUND": "CC1CC(CC(C)(C)C)c2cccc(NC(=S)c3c(C(F)F)nn(C)c3F)c21 (stereo not drawn)", "QUANTITY KIND": "Eff. %", "RESULT NUMBER": 98}
{"COMPOUND": "Cn1nc(C(F)F)c(C(=O)Nc2cccc3c2CC(C)(C)C3)c1F", "QUANTITY KIND": "Eff. %", "RESULT NUMBER": 98}
{"COMPOUND": "CCC1Cc2cccc(NC(=O)c3c(C(F)F)nn(C)c3Cl)c2C1 (stereo not drawn)", "QUANTITY KIND": "Eff. %", "RESULT NUMBER": 100}
{"COMPOUND": "CC1CC(C)(C)c2c(C3CC3)ccc(NC(=O)c3c(C(F)F)nn(C)c3Cl)c21 (stereo not drawn)", "QUANTITY KIND": "Eff. %", "RESULT NUMBER": 94}
{"COMPOUND": "CC1Cc2c(NC(=O)c3c(C(F)F)nn(C)c3Cl)cccc2C1C (stereo not drawn)", "QUANTITY KIND": "Eff. %", "RESULT NUMBER": 94}
{"COMPOUND": "CC1CC(CC(C)(C)C)c2cccc(NC(=O)c3c(C(F)F)nn(C)c3F)c21 (stereo not drawn)", "QUANTITY KIND": "Eff. %", "RESULT NUMBER": 98}
{"COMPOUND": "CC1c2cccc(NC(=O)c3c(C(F)F)nn(C)c3Cl)c2CC1(C)C (stereo not drawn)", "QUANTITY KIND": "Eff. %", "RESULT NUMBER": 100}
{"COMPOUND": "CC(C)C1Cc2c(NC(=O)c3c(C(F)F)nn(C)c3Cl)cccc2C1(C)C (stereo not drawn)", "QUANTITY KIND": "Eff. %", "RESULT NUMBER": 100}
